system tested: Neuropilin-1 (Homo sapiens) (UniProt O14786)
Sequence (O14786 whole entry, looked up): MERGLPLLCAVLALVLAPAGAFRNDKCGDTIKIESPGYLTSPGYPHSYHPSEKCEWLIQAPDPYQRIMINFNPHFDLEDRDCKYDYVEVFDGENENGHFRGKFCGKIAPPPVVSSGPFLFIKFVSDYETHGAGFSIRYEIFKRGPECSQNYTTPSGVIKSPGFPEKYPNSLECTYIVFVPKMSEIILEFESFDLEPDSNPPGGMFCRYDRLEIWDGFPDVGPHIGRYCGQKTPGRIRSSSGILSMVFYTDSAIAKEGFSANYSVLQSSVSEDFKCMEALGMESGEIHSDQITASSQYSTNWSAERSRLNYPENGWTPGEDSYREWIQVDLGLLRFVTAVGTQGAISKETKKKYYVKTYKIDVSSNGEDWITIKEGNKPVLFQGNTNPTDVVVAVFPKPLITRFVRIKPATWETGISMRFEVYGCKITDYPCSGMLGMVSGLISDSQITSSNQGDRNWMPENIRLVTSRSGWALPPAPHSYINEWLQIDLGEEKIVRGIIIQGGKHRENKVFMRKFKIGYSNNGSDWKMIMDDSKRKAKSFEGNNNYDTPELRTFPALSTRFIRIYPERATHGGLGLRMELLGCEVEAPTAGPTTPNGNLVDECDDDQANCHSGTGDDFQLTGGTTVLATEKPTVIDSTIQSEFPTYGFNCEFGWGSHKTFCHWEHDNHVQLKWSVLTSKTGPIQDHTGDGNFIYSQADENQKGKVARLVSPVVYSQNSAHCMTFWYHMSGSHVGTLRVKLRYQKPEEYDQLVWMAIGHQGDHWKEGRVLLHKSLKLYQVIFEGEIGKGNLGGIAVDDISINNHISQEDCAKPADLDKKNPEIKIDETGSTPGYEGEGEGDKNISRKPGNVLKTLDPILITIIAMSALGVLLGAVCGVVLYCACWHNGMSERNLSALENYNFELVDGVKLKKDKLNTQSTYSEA
measurement description: NRP-1 b1b2 CendR peptide binding inhibitors, dose response, biochemical, FP and AlphaScreen panel (AID 651650)
test context: NRP-1 b1b2 / RPARPAR peptide binding, FP or AlphaScreen; AlphaScreen, mean of runs
Activity calls are given as the source filed them.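 How the source made its calls: active means mean IC50 below 20 µM in each of the two panels, so potent in both; inactive means the rest.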
Tick one outcome: t = active, f = inactive

// query Write down the call the test reported for this compound. Item: `CCN(Cc1ccncc1)C(=O)c1cc(COc2ccc(F)cc2F)on1`
// result f

// query Write down the call the test reported for this compound. Item: `COc1ccc(CCNC(=O)c2ccc(Cl)c(S(=O)(=O)N(C)c3ccccc3)c2)cc1`
// result f

// query Write down the call the test reported for this compound. Item: CC(CN1CCOCC1)OC(=O)c1ccc2c(c1)OCCO2 (stereo not given)
// result f

// query Write down the call the test reported for this compound. Item: `NC(=O)C1=C[C@H](c2ccc(Br)cc2)C[C@H](OCc2ccc(CO)cc2)O1`
// result f

// query Write down the call the test reported for this compound. Item: `O=[N+]([O-])c1ccc(Nc2nc(NC3CCCCC3)nc(N3CCCC3)n2)cc1`
// result f

// query Write down the call the test reported for this compound. Item: `COc1ccc(CCN=C2SCC(=O)N2Cc2ccccc2)cc1OC`
// result f

// query Write down the call the test reported for this compound. Item: `O=C(NCCN1CCN(C(=O)c2cccc(OC(F)F)c2)CC1)c1cccc(OC(F)F)c1`
// result f

// query Write down the call the test reported for this compound. Item: `CN(C)Cc1cc(C(F)(F)F)ccc1C(O)(c1ccccc1)c1ccccc1`
// result f

// query Write down the call the test reported for this compound. Item: `CCN(CC(=O)NCc1cccs1)S(=O)(=O)c1ccc(C(C)C)cc1`
// result f

// query Write down the call the test reported for this compound. Item: `CCOC(=O)[C@@H]1[C@H]2COc3ccccc3[C@@H]2N2C(=O)N(c3ccc(Cl)cc3)C(=O)[C@]12C`
// result t
